Cited source: patent US20190338002A1

EXPERIMENTAL_TARGET: T1, rat beta CGRP (SEQ ID NO: 83) (rat, not fully specified)
T1 construct: also called rat βCGRP; rat β-CGRP
T1 peptide: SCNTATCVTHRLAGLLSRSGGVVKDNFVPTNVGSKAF
ASSAY_NAME: SPR, 37 C, mutein captured, CGRP analyte
Text: The Biotin CAPture Kit (GE Healthcare) was used to immobilize biotinylated lipocalin muteins to a chip surface. Muteins were biotinylated using standard NHS chemistry. […] The data were double-referenced by subtraction of the corresponding signals measured for the control channel (loaded with Biotin CAPture reagent only) and by subtraction of buffer injections from the binding responses. […]
QUANTITY_MEASURED: koff (s⁻¹)
Express the result in s⁻¹ but write the number alone.

(Q) I'd like to know its koff. The binder in question is lipocalin mutein SEQ ID NO: 7 (designed binder, biotinylated by NHS chemistry for capture in SPR) QDSTSDLIPAPPLSKVPLQQNFQDNQFHGKWYVVGWAGNTLLREDKDPIKMQATIYELKEDKSYNVTWVYFSEKRCNYHIETSVPGSQPGEFTLGTIKSYPGETSILVRVVSTNYNQHAMVFFKGVSQNREIFEITLYGRTKELTSELKENFIRFSKSLGLPENHIVFPVPIDQCIDGSAWSHPQFEK
(A) 0.000276

---
(Q) Look at this binder and give its reported koff. lipocalin mutein SEQ ID NO: 28 (designed binder, biotinylated by NHS chemistry for capture in SPR) QDSTSDLIPAPPLSKVPLQQNFQDNQFHGKWYVVGWAGNTLLREDKDPIKMQAIIYELKEDRSYNVTWVYFSEKKCNYHIETFVPGSQPGEFTLGTIKSYPGETPILVRVMSTNYNQHAMVFFKGVNQNREIFEIILYGRTKELTNELKENFIRFSKSLGLPENHIVFPVPIDQCIDGSAWSHPQFEK
(A) 5.48e-05
